# TGT: D(1A) dopamine receptor (Homo sapiens) (UniProt P21728)
# Sequence (P21728 whole entry, looked up): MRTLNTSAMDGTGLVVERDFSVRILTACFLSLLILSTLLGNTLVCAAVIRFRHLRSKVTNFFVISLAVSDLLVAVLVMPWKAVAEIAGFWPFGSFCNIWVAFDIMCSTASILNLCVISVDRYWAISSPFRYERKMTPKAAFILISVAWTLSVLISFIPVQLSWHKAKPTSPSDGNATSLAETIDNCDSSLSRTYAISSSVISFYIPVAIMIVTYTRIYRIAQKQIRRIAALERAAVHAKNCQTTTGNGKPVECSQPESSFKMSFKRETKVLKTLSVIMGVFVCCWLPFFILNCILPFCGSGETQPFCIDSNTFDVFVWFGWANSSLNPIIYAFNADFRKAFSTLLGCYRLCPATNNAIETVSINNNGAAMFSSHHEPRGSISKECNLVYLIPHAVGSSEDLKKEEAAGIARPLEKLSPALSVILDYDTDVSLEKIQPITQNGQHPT
# ASSAY_OVERVIEW: Antagonist of Human D 1 Dopamine Receptor: qHTS; further: on the % scale 0 is the no-effect control and ±100 the full control effect
# EXPERIMENTAL_SETUP: HEK293 TREx D1 cells, calcium flux, dopamine EC80; at 10 µM; hits give low values
# Description: Dopamine receptors (DARs) are involved in the etiology and/or therapy of a number of neuropsychiatric and endocrine disorders. […] Freshly passaged cells are plated in 1536 well black, clear bottom plates at a density of 4000 cells/well in 3 ul of complete media containing 1x tetracycline inducer. […] Agonist read: A 10 cycle (1 second/cycle) baseline measurement is taken and then the FDSS online 1536 pintool delivers 23 nl of compound library (as well as dopamine controls) to the plate. […]
In all, about 360,000 compounds went through this assay and about 11,000 (3.1%) were called active. Many of the other results were omitted from the sample, so actives are more common in it than they were.
Threshold -20%. activity change, negative = inhibition below it: t. activity change, negative = inhibition at it or above: f.

Examples with answers:
[[record]]
compound = "CCCNC(=O)C1CCC(Cn2c(=O)c3sccc3n(Cc3ccccc3F)c2=O)CC1 (configuration not stated)"
label = "f"

[[record]]
compound = "CCOc1ccc(OCC)c(NC(=O)CN(c2ccc(C)cc2)S(=O)(=O)c2c(C)n[nH]c2C)c1"
label = "f"

[[record]]
compound = "CN(C)CCCn1c(SCCN2C(=O)c3ccccc3C2=O)nc2ccccc2c1=O"
label = "t"


-- ask Criterion: activity change, negative = inhibition strictly below -20%. Is it met by N#Cc1nc(/C=C/c2ccc(F)cc2)oc1NCc1ccc(F)cc1 ?
-- reply f

-- ask For CN1CCN(c2ccc(NC(=O)COc3ccc(Cl)cc3Cl)cc2)CC1 , is the recorded activity change, negative = inhibition below the cut-off of -20%?
-- reply t

-- ask Does this compound meet the criterion activity change, negative = inhibition < -20%? CCC(=O)c1ccc(OCC(=O)Nc2ccc(N3CCCCC3)cc2)cc1
-- reply f

-- ask Strictly below -20%: is that where activity change, negative = inhibition of CCOc1ccccc1C(=O)NCC(c1ccc(N(C)C)cc1)N1CCCC1 (configuration not stated) sits?
-- reply f

###

# TGT: D(1A) dopamine receptor (Homo sapiens)
# ASSAY_OVERVIEW: Antagonist of Human D 1 Dopamine Receptor: qHTS; further: on the % scale 0 is the no-effect control and ±100 the full control effect
# EXPERIMENTAL_SETUP: HEK293 TREx D1 cells, calcium flux, dopamine EC80; at 10 µM; hits give low values
In all, about 360,000 compounds went through this assay and about 11,000 (3.1%) were called active. Shown is part of a subset that was picked to be rich in actives.
MEASUREMENT_KIND: activity change, negative = inhibition (%)
Give your result in % as a bare value.

The value of activity change, negative = inhibition measured for the compound COC(=O)c1ccccc1NC(=O)Cn1c(=O)n(-c2cccc(C(F)(F)F)c2)c(=O)c2c(C)c(C)sc21 turned out to be 0.199

Note to self: activity change, negative = inhibition recorded for CCCOc1cccc(C(=O)Nc2cccc(NC(=O)c3ccc(C(C)(C)C)cc3)c2)c1 was -1.05

Reported activity change, negative = inhibition for CSCCC(NC(=O)c1ccccc1)C(=O)N1CCCCCCC1 (stereo unspecified) was -32.7

Value of activity change, negative = inhibition reported for the compound O=C(Nc1ccncc1)c1ccccc1[N+](=O)[O-] is -0.321

For reference, reported activity change, negative = inhibition for CC(=O)Oc1ccccc1C(=O)Nc1ncc([N+](=O)[O-])s1 stands at -33.9

Summary for this compound, Cc1ccc(S(=O)(=O)NCCC(=O)OCC(=O)N(C)c2ccccc2)cc1 : activity change, negative = inhibition is -1.79
